# target.desc: Integrin alpha-IIb/beta-3 (Homo sapiens, UniProt P05106+P08514)
# Sequence (P05106 27-788 limits assumed): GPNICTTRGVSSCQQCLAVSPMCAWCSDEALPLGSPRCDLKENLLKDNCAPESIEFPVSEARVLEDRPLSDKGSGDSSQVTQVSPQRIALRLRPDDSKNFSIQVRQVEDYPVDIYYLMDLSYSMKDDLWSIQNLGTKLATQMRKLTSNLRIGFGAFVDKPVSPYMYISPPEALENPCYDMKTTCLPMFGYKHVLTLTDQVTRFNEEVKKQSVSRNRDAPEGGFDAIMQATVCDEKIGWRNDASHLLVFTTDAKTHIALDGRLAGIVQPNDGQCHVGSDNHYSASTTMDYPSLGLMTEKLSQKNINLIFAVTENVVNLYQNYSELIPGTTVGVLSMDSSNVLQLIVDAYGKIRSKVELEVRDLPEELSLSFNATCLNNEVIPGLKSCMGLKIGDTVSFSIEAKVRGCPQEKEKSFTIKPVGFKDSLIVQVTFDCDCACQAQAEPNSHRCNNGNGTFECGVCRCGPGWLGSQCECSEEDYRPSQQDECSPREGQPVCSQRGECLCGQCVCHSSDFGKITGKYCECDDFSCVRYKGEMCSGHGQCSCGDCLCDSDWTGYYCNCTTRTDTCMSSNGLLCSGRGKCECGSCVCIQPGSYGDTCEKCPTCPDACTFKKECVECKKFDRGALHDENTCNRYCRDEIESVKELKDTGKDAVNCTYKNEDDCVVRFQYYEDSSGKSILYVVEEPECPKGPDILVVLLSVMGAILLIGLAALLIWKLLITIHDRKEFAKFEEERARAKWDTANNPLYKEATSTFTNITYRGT
# Sequence (P08514 32-887 limits assumed): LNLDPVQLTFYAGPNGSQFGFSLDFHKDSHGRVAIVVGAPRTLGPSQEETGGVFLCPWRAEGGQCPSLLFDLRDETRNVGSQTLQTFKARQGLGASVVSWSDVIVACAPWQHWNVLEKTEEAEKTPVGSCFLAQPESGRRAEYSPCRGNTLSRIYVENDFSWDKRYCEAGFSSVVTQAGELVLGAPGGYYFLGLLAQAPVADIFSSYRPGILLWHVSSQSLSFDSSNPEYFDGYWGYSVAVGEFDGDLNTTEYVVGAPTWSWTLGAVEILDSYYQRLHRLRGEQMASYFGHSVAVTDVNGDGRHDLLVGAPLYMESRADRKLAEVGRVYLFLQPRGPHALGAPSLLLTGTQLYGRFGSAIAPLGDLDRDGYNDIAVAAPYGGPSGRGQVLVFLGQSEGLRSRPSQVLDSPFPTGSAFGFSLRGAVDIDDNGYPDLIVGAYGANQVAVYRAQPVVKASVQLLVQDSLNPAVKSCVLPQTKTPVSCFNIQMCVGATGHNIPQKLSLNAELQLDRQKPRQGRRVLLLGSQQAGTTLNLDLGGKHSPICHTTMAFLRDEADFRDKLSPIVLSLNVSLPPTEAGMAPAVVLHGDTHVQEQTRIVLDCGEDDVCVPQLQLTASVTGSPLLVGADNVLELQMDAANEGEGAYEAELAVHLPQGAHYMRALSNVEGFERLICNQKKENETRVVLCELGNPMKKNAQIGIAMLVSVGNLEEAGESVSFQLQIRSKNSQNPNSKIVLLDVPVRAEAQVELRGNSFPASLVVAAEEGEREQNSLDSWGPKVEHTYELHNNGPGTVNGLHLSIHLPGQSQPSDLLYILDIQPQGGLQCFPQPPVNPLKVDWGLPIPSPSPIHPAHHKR
# Sequence (P08514 891-1039 limits assumed): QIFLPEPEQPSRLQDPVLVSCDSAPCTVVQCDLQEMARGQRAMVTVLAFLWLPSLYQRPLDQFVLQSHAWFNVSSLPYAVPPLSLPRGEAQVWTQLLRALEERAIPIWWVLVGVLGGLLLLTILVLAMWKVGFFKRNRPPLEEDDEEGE
# experimental.protocol: Inhibition of Fibrinogen binding to Immobilized Human Fibrinogen Receptor.
# Type: protein-complex assay
pIC50: −log10 of the molar value.
Reported pIC50 values for a set of compounds
quantity: pIC50

NC(=NCc1ccco1)c1ccc(C(=O)Nc2ccc3c(c2)CC(CC(=O)O)CC3)cc1 (stereo unspecified) : 9.70
N=C(c1ccc(C(=O)Nc2ccc3c(c2)C[C@@H](CC(=O)O)CO3)cc1)N1CCOCC1 : 9.92
N=C(c1ccc(C(=O)Nc2ccc3c(c2)CC(CC(=O)O)CO3)cc1)N1CCOCC1 (stereo unspecified) : 10.01
N=C(c1ccc(C(=O)Nc2ccc3c(c2)CC(CC(=O)O)CC3)cc1)N1CCOCC1 (stereo unspecified) : 9.82
C#CC/N=C(\N)c1ccc(C(=O)Nc2ccc3c(c2)CC(CC(=O)O)CC3)cc1 (stereo unspecified) : 9.80
N=C(N)c1ccc(C(=O)Nc2ccc3c(c2)CC(CC(=O)O)CO3)cc1 (stereo unspecified) : 10.14
N=C(c1ccc(C(=O)Nc2ccc3c(c2)C[C@H](CC(=O)O)CO3)cc1)N1CCOCC1 : 8.59
CCCNC(=N)c1ccc(C(=O)Nc2ccc3c(c2)CC(CC(=O)O)CC3)cc1 (stereo unspecified) : 9.89
C#CCNC(=N)c1ccc(C(=O)Nc2ccc3c(c2)CC(CC(=O)O)CO3)cc1 (stereo unspecified) : 9.89
N=C(N)c1ccc(C(=O)Nc2ccc3c(c2)CC(CC(=O)O)CC3)cc1 (stereo unspecified) : 9.92
C=CCNC(=N)c1ccc(C(=O)Nc2ccc3c(c2)CC(CC(=O)O)CC3)cc1 (stereo unspecified) : 9.59
